experiment: yeast display, Sf9 membrane polyspecificity reagent, FACS + sequencing; frameworks hold sequencing errors
property: polyreactivity (PSR sort gate)

Guide cases for polyreactivity (PSR sort gate), answers given:
QVQLVESGGGLFQAGGSLRISCAASGRIFTKNTMGWYRQPPWKERELFAAIRSRAGSTYYADSVKGRFTISRDNAKNTVYLQMNSLKPEDTAFYYCAVPWFRSVDFDYWGQGTQVTVSS
low polyreactivity
QVQLVESGGGLVQAGGSLRLICAGSGLTFPYYTMGWYRQAPGEERELVAAISRRGGSTYYADSVKGRFTISRDNAKNTVYLQMNSLKPEDTAVYYCAADKYSWYDYWGQGTQVTVSS
low polyreactivity
QLHLVESGGGLVQAGGSLRLSCAGSGFTFGHSAMGWYRQAPGNDRELVASITWSGGSTYYADSVKGRFTISRDNAKNTVYLQMNSRKPEDTAVYYCNAQERRVRDYDYWGQGTQVTVSS
low polyreactivity
QVQLVESGGGLVQAGGRLRLSCAASGFIFSYYAMGWYRQAPGKERELVAAINYSGGRTYYADSVKGRFTISRDNAKNTVYLQMNSLKPEDTAVYYCNAVTFGRRAFDYWGQGTQVTVSS
high polyreactivity
QVQLVESGGGLVQAGGSLRLSCAASGSIFDTYAMGWYRQAPGKEREVVAAITWSGSSTYYADSVKGRFTISRDNAKNTVYLQMNSLKPEDTAVYYCAAEVSGKYFLFDYWGQGTQVTVSS
high polyreactivity

In: So what does the record say about polyreactivity (PSR sort gate) for QVQLVESGGGLVQAGGSLRISFAASGFTFNLYAMGWYRQAPGKERELVAAISWSGGRTYYADSVKGRFTISRDNAKNTVYLQMNSLKPEDTAVYYCNAPYWTSKSRFDYWGQGTQVTVSS ?
Out: low polyreactivity

In: So what does the record say about polyreactivity (PSR sort gate) for QVQLVESGGGLVQAGGSLRLSCAASGSIFVRNGMGWYRQAPGKDRELVASITSGTITYYADSVKGRFTISRDNAKNTVYLQMNSLKPEDTAVYDCNAGWRSSRFKRPYFRERNYWGQGTQLTVSS ?
Out: high polyreactivity

In: So what does the record say about polyreactivity (PSR sort gate) for QVQLVESGGGLVQAGGSLRLSCAASGSIFVYYAMGWYRQAPGKERELVAAITRRGGSTYYADSVKGRFTISRDNAKNTVYLQMNSLKPEDTAVYYCNSYTSRQYGLEYWGQGTQVSVSS ?
Out: high polyreactivity

###

assay: yeast display, Sf9 membrane polyspecificity reagent, FACS + sequencing; frameworks hold sequencing errors
property: polyreactivity (PSR sort gate)

QVQLVESGGGLVQAGGSLRLSCAASGSTFGAYAMGWYRQAPGKERELVAAINRGTSTNYADSVKGRFTISRDNAKNTVYLQMNSLKPEDTAVYYCAVAVLPWQLYSESYAEYDYWGQGTQVTVSS
low polyreactivity
QVHLVESGGGLVQAGGSLRLSCAASGSIFVHNAMGWYRQAPGKESELVAGISARGASTYYADSVKGRFTISRDNAKNTVYLQMKSLKPEDTAVYYCAADRIPGYRVYGFYYWGQGTQVTVSS
low polyreactivity

###

test: yeast display, Sf9 membrane polyspecificity reagent, FACS + sequencing; frameworks hold sequencing errors
property: polyreactivity (PSR sort gate)

Guide cases for polyreactivity (PSR sort gate), answers given:
QVQLVESGGGLVQAGGSLRLSCAASGSTFRLNAMGWYRQSPGKERELVAAISRGGSTNYADSVKGRFTISRDNAKNTVYLQMNSLKPEDTAVYYCATRRSYKYYWGQGTQVTVSS
high polyreactivity
RVQLQESGGGLVQAGGSLRLSCAASGTIFIRGDMGWYRQAPGKEREFVATIDTGSNTYYADSEKGRFTISRDNAKNAVSLQMICLKPGDTAVYYCVVDYQLSGRLRYWGQGTQVTLSS
low polyreactivity
QVQLVESGGGLVQAGGSLRLSCAASGRTFKYNAMGWYRQAPGKERELVAAISNRGGSTYYADSVKGRFTISRDNAKNTVYLQMNSLKPEDTAVYYCAVRAVYRWSSGYGYWGQGTQVTVSS
high polyreactivity
QVQLVESGGGLVQAGGSLRLSCAASGFIFKFYTMGWYRQAPGKERELVAVISGSGGRTYYADSVKGRFTISRDNAKNTVYLQMNSLKPEDTAVYYCARYGPYQSSYHYDYWGQGTQVTVSS
high polyreactivity
QVQLQESGGGLVQAGGSLRLSCAASGTISYAPHMGWYRQAPGKERELVAGITIGGTTYYADSVKGRFTISRDNANNTVYLQMNSLSPGDTAVYYCAAHSEQYTPFYYWGQGTQVTVSS
low polyreactivity

In: So what does the record say about polyreactivity (PSR sort gate) for QVHLVESGGGLVQAGGSLRLSCAASGIILYRNAMGWYRQAPGKERELVAAITNTGSRTYYADSVKGRFTISRDNAKNTVYLQMTSLKPEDTAVYYCAAYYYYSAYGDDYWGQGTQVTVSS ?
Out: high polyreactivity

In: So what does the record say about polyreactivity (PSR sort gate) for QVQLVESGGGLVQAGGRLRLSCAASGSTFGLNAMGWYRQAPGTERELVAAITSRGTRTYYADSVKGRFTISRDNAKNTVYLQMNSLKTEDTAGYKCAKDSGATRYGEYDYWGQGTQVTVSS ?
Out: low polyreactivity

In: So what does the record say about polyreactivity (PSR sort gate) for QVQLVESGGGLVQAGGSLRLSCAASGSTFVLNAMGWYRQAPGKERELVAAISSGGRTYYADSVKGRFTISRDNAKNTVYLQMNSLKPEDTAVYYCAAKPYRGGHRTLFGYWGQGTQVTVSS ?
Out: high polyreactivity

In: So what does the record say about polyreactivity (PSR sort gate) for QVQLVESGGGLVQAGGSLRVSCAASGRTFSGYTMGWYRQAPGKERELVATIRDRGGSTYYADSVKGRFTISRDNAKNTVYLQMNSLTPEDTAVYYCAARRGRRYYYWGQATQVTVSS ?
Out: high polyreactivity

In: So what does the record say about polyreactivity (PSR sort gate) for QVQLVESGGGLVQAGGSLRLSCAASGRTFYGYAMGWYRQAPGKEREFVAAITYSGGRTYYADSVKGRFTISRDNAKNTVYLQMNSLKPEETAVYYCNAYYYYVNQGRYEYGYWGQGTQVTVSS ?
Out: high polyreactivity

In: So what does the record say about polyreactivity (PSR sort gate) for QVQLVESGGGLVQAGGSLRLSCAASGFTFWYYAMGWYRQAPGKERELVAAITRGGNTNYADSVKGRFTISRDNAKNTVYLQMNSLKPEDTAVYYCAVRFSAPGYYYWGQGTQVTVSS ?
Out: high polyreactivity
